Data provenance is patent US8835421B2.

// reported ΔTm after incubation at 37° C. for 0 h per item
system: calf thymus DNA (CT-DNA); assay: Thermal denaturation studies with duplex-form calf thymus DNA; format: binding; conditions: [PBD]:[DNA] 1:5; CT-DNA 100 μM, ligand 20 μM; sodium phosphate buffer pH 7.00; 0 h incubation at 37° C.

molecule: COc1cc2c(cc1O)N=CC1CCCN1C2=O (stereo not shown) [DC-81, reference compound]
system: calf thymus DNA (CT-DNA)
ΔTm after incubation at 37° C. for 0 h, °C: 0.3

molecule: COc1cc2c(cc1OCCCn1c(-c3ccccn3)nc3ccccc31)N=C[C@@H]1CCCN1C2=O [Compound 11a]
system: calf thymus DNA (CT-DNA)
ΔTm after incubation at 37° C. for 0 h, °C: 3.0

molecule: COC(=O)c1ccc2nc(-c3cn(C)c4ccccc34)n(CCCCOc3cc4c(cc3OC)C(=O)N3CCC[C@H]3C=N4)c2c1
system: calf thymus DNA (CT-DNA)
ΔTm after incubation at 37° C. for 0 h, °C: 1.5

molecule: COc1cc2c(cc1OCCCn1c(-c3ccco3)nc3ccccc31)N=C[C@@H]1CCCN1C2=O
system: calf thymus DNA (CT-DNA)
ΔTm after incubation at 37° C. for 0 h, °C: 5.1

molecule: COc1cc2c(cc1OCCCCn1c(-c3cccs3)nc3ccccc31)N=C[C@@H]1CCCN1C2=O
system: calf thymus DNA (CT-DNA)
ΔTm after incubation at 37° C. for 0 h, °C: 0.1

molecule: COc1cc2c(cc1OCCCn1c(-c3cccn3C)nc3ccccc31)N=C[C@@H]1CCCN1C2=O
system: calf thymus DNA (CT-DNA)
ΔTm after incubation at 37° C. for 0 h, °C: 2.0

molecule: COc1cc2c(cc1OCCCCCn1c(-c3ccccn3)nc3ccccc31)N=C[C@@H]1CCCN1C2=O [Compound 11b]
system: calf thymus DNA (CT-DNA)
ΔTm after incubation at 37° C. for 0 h, °C: 1.0

molecule: COc1cc2c(cc1OCCCCn1c(-c3ccco3)nc3ccccc31)N=C[C@@H]1CCCN1C2=O
system: calf thymus DNA (CT-DNA)
ΔTm after incubation at 37° C. for 0 h, °C: 0.1

molecule: COc1cc2c(cc1OCCCCCn1c(-c3ccc(OCc4ccccc4)cc3)nc3ccc(N4CCOCC4)cc31)N=C[C@@H]1CCCN1C2=O [Compound 11c]
system: calf thymus DNA (CT-DNA)
ΔTm after incubation at 37° C. for 0 h, °C: 2.9

molecule: COc1cc2c(cc1OCCCCCn1c(-c3ccco3)nc3ccccc31)N=C[C@@H]1CCCN1C2=O
system: calf thymus DNA (CT-DNA)
ΔTm after incubation at 37° C. for 0 h, °C: 5.1

molecule: CCOC(=O)c1ccc2nc(-c3ccc(OCc4ccccc4)cc3)n(CCCCCOc3cc4c(cc3OC)C(=O)N3CCC[C@H]3C=N4)c2c1 [Compound 11d]
system: calf thymus DNA (CT-DNA)
ΔTm after incubation at 37° C. for 0 h, °C: 2.0

molecule: COc1cc2c(cc1OCCCn1c(-c3cccs3)nc3ccccc31)N=C[C@@H]1CCCN1C2=O
system: calf thymus DNA (CT-DNA)
ΔTm after incubation at 37° C. for 0 h, °C: 3.9

molecule: COc1cc2c(cc1OCCCCCn1c(-c3cccs3)nc3ccccc31)N=C[C@@H]1CCCN1C2=O
system: calf thymus DNA (CT-DNA)
ΔTm after incubation at 37° C. for 0 h, °C: 6.1
